Target chain: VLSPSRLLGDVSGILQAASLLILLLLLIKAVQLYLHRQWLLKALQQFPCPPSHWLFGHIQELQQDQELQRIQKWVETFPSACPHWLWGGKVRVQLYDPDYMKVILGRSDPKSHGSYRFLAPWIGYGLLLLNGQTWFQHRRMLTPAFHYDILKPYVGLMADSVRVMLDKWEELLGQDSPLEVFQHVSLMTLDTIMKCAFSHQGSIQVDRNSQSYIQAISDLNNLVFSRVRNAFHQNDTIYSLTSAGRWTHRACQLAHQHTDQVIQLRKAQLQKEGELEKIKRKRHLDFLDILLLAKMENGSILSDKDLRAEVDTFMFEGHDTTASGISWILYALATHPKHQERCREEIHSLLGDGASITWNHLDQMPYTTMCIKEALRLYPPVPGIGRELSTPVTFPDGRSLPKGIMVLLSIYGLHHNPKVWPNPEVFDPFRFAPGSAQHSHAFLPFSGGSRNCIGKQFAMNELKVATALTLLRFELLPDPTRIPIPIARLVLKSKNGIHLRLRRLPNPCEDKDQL
pKi: −log10 of the molar value.
endpoint_label: pKi

In [3]: df
Out[3]:
                                   molecule  endpoint_label  quantitative_readout
0  CCCCCCCCCCCCOC(=S)S [C12, potassium O-dodecyl carbonodithioate]             pKi                  5.05

Source of measurements: paper PMC5614966
